Tested on: PA-1 (Ovarian Carcinoma);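 also: after 72 h of two-drug dosing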
Assay: Bliss excess, mean over the matrix (fraction); higher = more synergy
quantity.kind: Bliss excess
Numbers only.

Some solved cases for reference:
Fill in: Bliss excess of CCN(CCO)CCCOc1ccc2c(Nc3cc(CC(=O)Nc4cccc(F)c4)[nH]n3)ncnc2c1 [AZD2811] + C[C@@H]1COCCN1C2=NC(=NC(=C2)C3(CC3)[S@](=N)(=O)C)C4=C5C=CNC5=NC=C4 [AZD6738] (first compound max 1 µM, 7x7, partner max 10 µM) is ___
-0.0116

Same again, this time with Cc1c2c(nn1C)CSCc1cc(n(C)n1)CSc1cc(c3ccccc3c1)OCCCc1c(C(=O)O)n(C)c3c-2c(Cl)ccc13 [AZD5991] + C[C@@H]1COCCN1C2=NC(=NC(=C2)C3(CC3)[S@](=N)(=O)C)C4=C5C=CNC5=NC=C4 [AZD6738] (first compound max 1 µM, 7x7, partner max 10 µM)
0.0702

Same again, this time with CN(C)CCCOc1ccc(-c2ccc3ncc4c(c3c2)n(C2CCOCC2)c(=O)n4C)cn1 [AZD0156] + O=C(c1cc(Cc2n[nH]c(=O)c3ccccc23)ccc1F)N1CCN(C(=O)C2CC2)CC1 [Olaparib] (first compound max 3 µM, partner max 3 µM)
0.122

# ---- query molecule ----
Fill in: Bliss excess of Cc1cc2ncnn2cc1Nc1ncc2c(n1)n(C1CCOCC1)c(=O)n2C [AZD7648] + CN(C)CCCOc1ccc(-c2ccc3ncc4c(c3c2)n(C2CCOCC2)c(=O)n4C)cn1 [AZD0156] (first compound max 10 µM, 7x7, partner max 1 µM) is ___
-0.0117
